system: MIAPaCa-2 (pancreas); assay: In vitro cytotoxic activity assay (MTT), MIAPaCa-2; format: cell-based; details: Homo sapiens, MIA PaCa-2; cells exposed for 96 hours; 50 % inhibition of cell proliferation; read-out: Cytotoxicity activity IC50, MIAPaCa-2 (pancreas)

| smilesNotation | measurementTarget | endpointUnit | IC50 |
| --- | --- | --- | --- |
| O=C(O)c1cc2c(nc(Nc3cccc(Cl)c3)c3ccncc32)[nH]1 | MIAPaCa-2 (pancreas) | nM | 900 |

###

tested on: HCT116 (colon); assay: In vitro cytotoxic activity assay (MTT), HCT116; type: cell-based; settings: Homo sapiens, HCT-116; cells exposed for 96 hours; 50 % inhibition of cell proliferation; read-out: Cytotoxicity activity IC50, HCT116 (colon)

| smilesNotation | measurementTarget | IC50 |
| --- | --- | --- |
| O=C(O)c1cc2c(nc(Nc3cccc(Cl)c3)c3ccncc32)[nH]1 | HCT116 (colon) | 1000 nM |

###

molecular target: recombinant human CK2 (RRββ-holoenzyme) (Homo sapiens); assay: CK2 Kinase Assay; details: final ATP concentration 15 μM; 10 min at 30° C.; read-out: protein kinase CK2 inhibition IC50
Sequence (P68400 whole entry): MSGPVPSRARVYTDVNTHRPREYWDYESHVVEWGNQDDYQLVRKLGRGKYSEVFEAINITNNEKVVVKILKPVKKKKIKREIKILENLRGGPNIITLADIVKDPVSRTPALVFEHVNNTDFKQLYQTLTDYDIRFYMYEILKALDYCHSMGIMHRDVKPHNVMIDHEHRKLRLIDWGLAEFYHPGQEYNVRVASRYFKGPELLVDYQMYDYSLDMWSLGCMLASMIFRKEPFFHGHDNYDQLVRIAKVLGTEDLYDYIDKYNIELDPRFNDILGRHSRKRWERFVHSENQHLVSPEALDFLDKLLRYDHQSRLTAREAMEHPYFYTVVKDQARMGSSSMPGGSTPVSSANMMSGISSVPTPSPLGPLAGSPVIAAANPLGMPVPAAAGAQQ
Sequence (P67870 whole entry partner): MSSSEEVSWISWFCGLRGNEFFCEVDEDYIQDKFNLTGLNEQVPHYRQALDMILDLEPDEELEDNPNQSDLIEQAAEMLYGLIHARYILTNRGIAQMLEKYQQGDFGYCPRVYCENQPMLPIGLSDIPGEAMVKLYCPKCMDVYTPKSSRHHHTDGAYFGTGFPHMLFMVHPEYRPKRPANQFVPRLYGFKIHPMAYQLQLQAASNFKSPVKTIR
pIC50: −log10 of the molar value.
endpointName: pIC50

| smilesNotation | measurementTarget | endpointName | valueMeasured |
| --- | --- | --- | --- |
| O=C(O)c1cc2c(nc(Nc3cccc(Cl)c3)c3ccncc32)[nH]1 | recombinant human CK2 (RRββ-holoenzyme) (Homo sapiens) | pIC50 | 8.10 |

###

test system: MDA-MB-231 (breast); assay: In vitro cytotoxic activity assay (MTT), MDA-MB-231; assay type: cell-based; settings: Homo sapiens, cells exposed for 96 hours, 50 % inhibition of cell proliferation, read-out: Cytotoxicity activity IC50, MDA-MB-231 (breast)
endpointName: IC50 (µM)

| compound | valueMeasured |
| --- | --- |
| O=C(O)c1cc2c(nc(Nc3cccc(Cl)c3)c3ccncc32)[nH]1 [Compound 1] | 3.8 |

###

system: H1299 (lung); test: In vitro cytotoxic activity assay (MTT), H1299; type: cell-based; details: Homo sapiens, NCI-H1299; cells exposed for 96 hours; 50 % inhibition of cell proliferation; read-out: Cytotoxicity activity IC50, H1299 (lung)
pIC50: −log10 of the molar value.
endpointName: pIC50

| smilesNotation | endpointName | valueMeasured |
| --- | --- | --- |
| O=C(O)c1cc2c(nc(Nc3cccc(Cl)c3)c3ccncc32)[nH]1 | pIC50 | 5.89 |

// data source = patent US12129252B1
